# GI50 listing for each entry below
- Test system: A549 NSCLC
- ASSAY PROCEDURE: NCI tumour cell line growth inhibition, 48 h

// below: answered compounds
COc1cc(/C=N/Nc2ncnc3c2cnn3C(C)C)ccc1O: 9920 nM
CN(Cc1cnc(N)nc1N)c1ccc(C(=O)O)cc1: > 100000 nM
O=C(/C=C/c1ccccc1)c1c[nH]c2ccccc2c1=O: 2350 nM

# evaluate next
Task: Request - read-out GI50 | tested on A549 NSCLC | compound "CCCCN(CCCC)c1ccc(C(=N)c2ccc(N(C)C)cc2)cc1"
Result: 700 nM

###

- System: M14 melanoma
- ASSAY PROCEDURE: NCI tumour cell line growth inhibition, 48 h
Collected TGI values appear next to each entry.

Examples with their reported TGI follow.
CSc1c(C#N)c(O)n(-c2ccc(C)cc2)c(=O)c1C#N: > 100 µM
CO[C@H]1O[C@@H]2CO[C@@H](c3ccccc3)O[C@H]2[C@@H]2CC=CCC[C@]12O: > 100 µM

Task: What TGI value was documented for this compound, "O=C1c2cccc3cc([N+](=O)[O-])cc(c23)C(=O)N1NC1=NCCN1" ?
Result: > 100 µM

Task: Field entry: "C/C(=N/NC(=O)c1ccncc1)c1ccc(NC(=O)C(=O)Nn2c(=S)[nH]c3ccccc3c2=O)cc1"
Result: > 100 µM

Task: Try "Cc1cc(N2CCN(C)CC2)nc(NCc2cc(Nc3ccnc4cc(Cl)ccc34)ccc2F)n1" next.
Result: 3.86 µM

Task: Entry to check: Nc1nc(Cl)c(N)c(NCC2(CO)CC(Cc3ccccc3)C2)n1 (stereo unspecified)
Result: > 100 µM

Task: Ok, now N#CC(c1ccc(Cl)cc1)c1c(O)nc2ccc(=N)cc-2n1O (stereo unspecified)
Result: > 100 µM

Task: Try this compound too: O=c1[nH]c(=O)n(C2CC(O)C(CO)O2)cc1OCCc1ccccc1 (stereo unspecified)
Result: > 100 µM

Task: Would you mind doing NC(=O)C(c1ccccc1)N1OC2C(=O)N(Cc3ccccc3)C(=O)C2C1c1cccc(Oc2ccc(Cl)cc2)c1 (stereo unspecified) as well?
Result: 69.5 µM

###

- Test system: COLO 205 colon
- ASSAY PROCEDURE: NCI tumour cell line growth inhibition, 48 h
Here, each record is paired with measured TGI data.

Please review the following examples before continuing.
C=C(C)[C@@H]1C[C@H]2O[C@](O)(C(=C)CC(=O)/C=C(/C)C[C@@H]3OC(=O)[C@]24O[C@@H]34)[C@H]1O: > 100 µM
C=C[C@@H](OCOCC[Si](C)(C)C)[C@@H](CC)OC(CCCOC(=O)C(C)(C)C)OC (stereo not given in full): 95.1 µM
O=C1NCN(c2ccccc2)C12CCN(CCc1ccc3[nH]c(=S)[nH]c3c1)CC2: 30.7 µM
Cc1cccc(-n2c(C)nc3ccc(NC4OC(CO)C(O)C(O)C4O)cc3c2=O)c1 (stereo not given): > 100 µM
CN1C(OCc2ccccc2)c2c(ccc3c2OCO3)C2C=Cc3cc4c(cc3C21)OCO4 (stereo not given): 2.2 µM
O=C(Cc1nc2ccccc2c(=O)n1-c1c(Cl)cccc1Cl)c1ccncc1: 33.6 µM
O=C(CCCn1c(=O)c2sc3ccccc3c2n2nnc(-c3ccccc3)c12)NCCc1cnc[nH]1: 4.8 µM
COC1(C(C)(C)C)C=C(C(C)(C)C)P(=O)(O)O1 (stereo not given): > 100 µM

Task: Reported TGI for "NCC[Se][Se]CCN" : what is it?
Result: 14.6 µM

Task: Repeat for the following molecule: "O=C(O)c1nc2cc(C(F)(F)F)ccc2nc1Nc1ccc(Cl)c(Cl)c1"
Result: 30.2 µM

###

- Tested on: MCF7 breast
- ASSAY PROCEDURE: NCI tumour cell line growth inhibition, 48 h
METRIC NAME: TGI (µM)
Entry rule: numbers only, all in µM.

COc1ccc(C[n+]2c3ccccc3n3c4ccc(N)cc4ccc32)c(OC)c1OC: 26.1

Proceeding to the next compound to report its TGI.
Task: Given the compound "CC1=CC[C@@H]2C(C)(C)C(=O)CC[C@@]2(C)[C@@H]1COc1ccc2ccc(=O)oc2c1" , what is its reported TGI?
Result: 31.9

###

- Test system: T-47D breast
- ASSAY PROCEDURE: NCI tumour cell line growth inhibition, 48 h
Recorded TGI values for a group of molecules are listed next.
The reply should contain only the number, in µM.

Below, 5 molecules whose answers are already recorded.
O=S(=O)(Nc1cc(Br)c(O)c2ccccc12)c1ccc(F)cc1: 8.5
Cn1c(NN)nc(-c2ccc([N+](=O)[O-])cc2)c(C#N)c1=O: 30.9
CCNC(C)(C)C(SS)c1ccc(Br)cc1 (centres undefined): 93.6
O=C1NCN(c2ccccc2)C12CCN(CCc1ccc3[nH]c(=S)[nH]c3c1)CC2: 56.8
Cc1nc(Cl)c(Cl)c(Cl)n1: 7.71

For the next question, use this molecule.
Task: Could you share what TGI was measured for "CC1=CC[C@@H]2C(C)(C)C(=O)CC[C@@]2(C)[C@@H]1COc1ccc2ccc(=O)oc2c1" , tested on T-47D breast?
Result: 11.1

###

- System: HT29 colon
- ASSAY PROCEDURE: NCI tumour cell line growth inhibition, 48 h; in the data active = GI50 below about 0.43 µM; inactive = the rest
Write down the outcome that applies. Available outcomes: y for active, n for inactive

COc1cc2c(c(OC)c1OC)C(=O)CC(c1cccc(NC(=O)c3ccc(Br)cc3)c1)O2 (stereo unspecified): n
O=C(/C=C1\C(=O)N(Cc2ccc([N+](=O)[O-])cc2)c2ccccc21)c1ccc(OCCN2CCCCC2)cc1: n
COc1ccc(C[n+]2c3ccccc3n3c4ccc(N)cc4ccc32)c(OC)c1OC: n
CN1CCN(c2ccc(-c3ccc4ncc(C#N)c(Nc5ccc(F)c(Cl)c5)c4c3)cc2)CC1: n
Cc1cc2cccnc2c2ncccc12: n
Cc1csc(/C=N/NC(=O)c2nnn(-c3ccnc4c(C(F)(F)F)cccc34)c2C)c1: n
O=C(/C=C/c1ccccc1)c1c[nH]c2ccccc2c1=O: n
CCCCN(CCCC)c1ccc(C(=N)c2ccc(N(C)C)cc2)cc1: y
O=[N+]([O-])c1cc([N+](=O)[O-])c(Cl)c(Cl)c1Cl: n
Cc1oc2nc[nH]c(=O)c2c1C(=O)/C=C/c1ccc(Cl)cc1: n

Continue with the next compound.
Task: What call does the record list for "COc1ccc2c(c1)[C@]1(C[C@H]1c1ccc3c(/C=C/c4ccc(CN5C[C@@H](C)O[C@@H](C)C5)cc4)n[nH]c3c1)C(=O)N2" ?
Result: n

###

Reported TGI values for a set of compounds
- Tested on: ACHN renal
- ASSAY PROCEDURE: NCI tumour cell line growth inhibition, 48 h

Study these solved cases before continuing.
C=C(C)[C@@H]1C[C@H]2O[C@](O)(C(=C)CC(=O)/C=C(/C)C[C@@H]3OC(=O)[C@]24O[C@@H]34)[C@H]1O: > 100 µM
Cc1cccc2[nH]c3cc(O)cc(O)c3c(=O)c12: > 10 µM
Clc1ccccc1C(n1ncc2ccccc21)n1ncc2ccccc21: > 100 µM

Now for another entry.
Task: Name the reported TGI value associated with the compound CC(=O)NC1=C(C)C(=O)c2c(nc3n2CCC3OC(=O)c2ccccc2)C1=N (centres undefined)
Result: 3.13 µM

###

- Test system: CCRF-CEM leukemia
- ASSAY PROCEDURE: NCI tumour cell line growth inhibition, 48 h
METRIC NAME: TGI

Below are worked cases with known answers.
C=CCC1C(=O)C(C(=O)OC)N2CCc3c([nH]c4ccccc34)C12 (stereo not given): > 100 µM
O=C1c2cccc3cc([N+](=O)[O-])cc(c23)C(=O)N1NC1=NCCN1: > 100 µM
CCCN(CCCN)/[N+]([O-])=N\O: > 100 µM
OC(CC(CC(O)(C(F)(F)Cl)C(F)(F)Cl)=NNc1ccccc1)(C(F)(F)Cl)C(F)(F)Cl: > 10 µM

Field: next compound
Task: Which TGI value belongs to "COC(=O)/C=C/c1cnc2c(c1)oc(=O)n2CCc1ccccn1" ?
Result: 69 µM

###

- Tested on: IGROV1 ovarian
- ASSAY PROCEDURE: NCI tumour cell line growth inhibition, 48 h
Below: a set of entries, each annotated with reported TGI.

O=C(C/C(=N\NC(=O)C[n+]1ccccc1)C(=O)Nc1nc2ccc([N+](=O)[O-])cc2s1)CC(c1ccccc1)c1c(O)c2ccccc2oc1=O (stereo not drawn): > 100 µM

Below: the item to evaluate.
Task: What value of measured TGI is listed for "COc1ccc(-c2nn(-c3ccc(NC(=O)c4ccc(Cl)c(C(F)(F)F)c4)cc3)cc2-c2ccncc2)cc1Cl" ?
Result: > 100 µM

###

- System: NCI-H460 lung
The reply should be one of these categories: active, inactive

These solved cases illustrate the format of a correct answer.
COc1cc2c(c(OC)c1OC)C(=O)CC(c1cccc(NC(=O)c3ccc(Br)cc3)c1)O2 (stereo not given): inactive
O=S(=O)(Nc1cc(Br)c(O)c2ccccc12)c1ccc(F)cc1: inactive
C=C1C(=O)O[C@H]2[C@H]1CC/C(Cn1cc(CNCCc3c[nH]c4ccc(Cl)cc34)nn1)=C\CC[C@@]1(C)O[C@@H]21: inactive
CC[C@@]1(OC(=O)CN)C(=O)OCc2c1cc1n(c2=O)Cc2cc3cc4c(cc3nc2-1)OCO4: active
Oc1c(C(Nc2cccc3ccccc23)c2ccccc2)ccc2cccnc12 (stereo not given): inactive

Task: Given "CN(CCC#N)c1ccc(/C=C(\C#N)c2cccc(C(F)(F)F)c2)cc1" , state the outcome it received in this test.
Result: inactive

Task: Do the same for "N#CC(C#N)=Cc1c(-c2ccccc2)[nH]c2ccccc12" please
Result: inactive

Task: Again, but for "C=CCn1c(=O)c2cnc(Nc3ccc(N4CCN(C)CC4)cc3)nc2n1-c1ccc2c(n1)[C@@](O)(CC)CC2"
Result: inactive

Task: Now consider "COc1ccc2c(c1)[C@]1(C[C@H]1c1ccc3c(/C=C/c4ccc(CN5C[C@@H](C)O[C@@H](C)C5)cc4)n[nH]c3c1)C(=O)N2" and answer again.
Result: inactive

Task: Now this one: "Cc1oc2nc[nH]c(=O)c2c1C(=O)/C=C/c1ccc(Cl)cc1"
Result: inactive

Task: Entry to check: "O=[N+]([O-])c1cc([N+](=O)[O-])c(Cl)c(Cl)c1Cl"
Result: inactive

Task: Now the same for "CC1=CC[C@@H]2C(C)(C)C(=O)CC[C@@]2(C)[C@@H]1COc1ccc2ccc(=O)oc2c1"
Result: inactive

Task: Then "O=C(COc1ccc(/C=C2\Oc3ccccc3C2=O)cc1)Nc1nccs1" ?
Result: inactive

Task: Another: Cc1c(C)c2c(c(C)c1NC(=O)/C=C\C(=O)O)CCC(C)(CCCC(C)CCCC(C)CCCC(C)C)O2 (stereo not given)
Result: inactive

Task: Again, but for O=C(/C=C/C12c3ccccc3C(c3ccccc31)C1C(=O)N(c3ccccc3)C(=O)C12)c1ccc(Cl)cc1 (stereo not given)
Result: inactive

Values compiled from PubChem BioAssay (NCI).
